B1: TPR t1 (parent)
chain: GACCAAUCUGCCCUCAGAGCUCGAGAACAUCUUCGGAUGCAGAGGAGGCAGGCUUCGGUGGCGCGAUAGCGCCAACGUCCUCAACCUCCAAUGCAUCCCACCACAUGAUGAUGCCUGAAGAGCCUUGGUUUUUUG

- Variants of: B1
- EXPERIMENT_DESCRIPTION: polymerase ribozyme fitness, log enrichment relative to wild type (log ratio); higher = more active; in vitro selection for triplet polymerase activity
If the reported polymerase ribozyme fitness (log ratio) equals or exceeds -3, assign Yes. If not, assign No.

> print(dat)
                mutation.notation  assigned.label
1     C20U G42A C124G U126C G135U             Yes
2            C11A G69U G93A G128U              No
3                 G45U A50U G117U              No
4                      C97A U131A              No
5  C13G A37U C53A C79A U87C U129C              No
6                  G61A G77A A91G             Yes
7                       U21A C72A             Yes
8  U38G G42C A43U G71C C82U C115U              No
